Value source: patent US20130281465A1

Target: orexin type 2 receptor (hOX2R) (Homo sapiens)
Sequence (O43614 whole entry): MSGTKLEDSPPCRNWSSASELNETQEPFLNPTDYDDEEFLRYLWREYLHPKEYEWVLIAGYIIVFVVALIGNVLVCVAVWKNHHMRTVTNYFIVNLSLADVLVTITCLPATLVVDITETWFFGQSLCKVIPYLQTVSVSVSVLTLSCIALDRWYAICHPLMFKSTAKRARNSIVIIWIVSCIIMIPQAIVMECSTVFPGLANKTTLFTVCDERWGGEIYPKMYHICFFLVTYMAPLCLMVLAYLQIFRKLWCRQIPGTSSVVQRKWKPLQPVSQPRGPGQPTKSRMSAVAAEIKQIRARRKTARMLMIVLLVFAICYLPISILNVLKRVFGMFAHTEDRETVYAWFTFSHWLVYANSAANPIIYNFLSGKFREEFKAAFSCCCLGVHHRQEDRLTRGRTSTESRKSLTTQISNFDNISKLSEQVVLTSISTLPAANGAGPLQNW
Assay: Orexin receptor antagonistic activity, intracellular Ca2+ fluorescence (FDSS) in CHO cells expressing hOX2R
Settings: CHO cells forced to express hOX2R; orexin-A analogue peptide ligand 3 nM; Fluo-4 maximum fluorescence; read-out: IC50 value OX2R
Procedure: The antagonistic activity of each test compound against human orexin type 1 receptor (hOX1R) and orexin type 2 receptor (hOX2R) was performed as described in the literature with a modification (Toshikatsu Okumura et al., Biochemical and Biophysical Research Communications 280, 976-981, 2001). […]
measurement-kind: IC50 (nM)

- smiles-text: "CCN(CCn1ccc(-c2ccc(F)cn2)n1)C(=O)c1ccc(F)cc1-c1ncccn1"
  IC50 / nM: 48.8
- smiles-text: "CCN(CCn1ccc(-c2ccc(F)cc2)n1)C(=O)c1cc(F)ccc1-c1ncccn1"
  IC50 / nM: 19.2
- smiles-text: "Cc1ccc(-n2nccn2)c(C(=O)NCCn2cc(-c3ccc(F)cn3)cn2)c1"
  IC50 / nM: 2390
- smiles-text: "CCN(CCn1cc(-c2ccccn2)cn1)C(=O)c1cc(C)ccc1-n1nccn1"
  IC50 / nM: 17.2

(P) CCN(CCn1ccc(-c2ccc(F)cn2)n1)C(=O)c1cc(C)ccc1-c1ncccn1
(Q) CCN(CCn1cc(-c2cccc(C)n2)cn1)C(=O)c1cc(C)ccc1-n1nccn1
(R) Cc1ccc(-n2nccn2)c(C(=O)N(CCn2cc(-c3ccc(F)cn3)cn2)C(C)C)c1
(S) CCN(CCn1ccc(-c2ccc(F)cn2)n1)C(=O)c1cc(F)ccc1-n1nccn1
Request: Order the records so the highest IC50 appears first and the lowest last. Rank the items, then write their labels in that order.
Response: R, Q, S, P
(R: 412 nM, Q: 22.7 nM, S: 12.2 nM, P: 3.7 nM)

---

target: human orexin type 1 receptor (hOX1R) (Homo sapiens); test: Orexin receptor antagonistic activity, intracellular Ca2+ fluorescence (FDSS) in CHO cells expressing hOX1R; settings: CHO cells forced to express hOX1R; orexin-A analogue peptide ligand 300 pM; Fluo-4 maximum fluorescence; read-out: IC50 value OX1R
Sequence (O43613 whole entry): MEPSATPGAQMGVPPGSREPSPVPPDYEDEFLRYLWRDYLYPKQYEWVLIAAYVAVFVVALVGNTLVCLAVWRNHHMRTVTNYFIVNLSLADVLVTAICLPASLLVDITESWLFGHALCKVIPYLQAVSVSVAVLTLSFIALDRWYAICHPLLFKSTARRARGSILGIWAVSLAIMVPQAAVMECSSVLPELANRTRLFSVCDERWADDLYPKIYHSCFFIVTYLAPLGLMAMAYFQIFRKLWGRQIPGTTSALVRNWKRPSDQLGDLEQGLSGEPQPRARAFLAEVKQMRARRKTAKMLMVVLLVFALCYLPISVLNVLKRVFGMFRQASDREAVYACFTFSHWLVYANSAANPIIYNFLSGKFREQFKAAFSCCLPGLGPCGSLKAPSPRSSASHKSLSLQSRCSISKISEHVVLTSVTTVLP
pIC50: −log10 of the molar value.
measurement-kind: pIC50

As a guide, the following entries are already answered.
- smiles-text: "CCN(CCn1cc(-c2cccc(C)n2)cn1)C(=O)c1cc(C)ccc1-n1nccn1"
  measurement-kind: "pIC50"
  number: 8.74
- smiles-text: "CCN(CCn1ccc(-c2cc(C(F)(F)F)ccn2)n1)C(=O)c1cc(F)ccc1-c1ncccn1"
  measurement-kind: "pIC50"
  number: 6.62
- smiles-text: "CCN(CCn1ccc(-c2ccc(F)cn2)n1)C(=O)c1cc(Cl)ccc1-c1ncccn1"
  measurement-kind: "pIC50"
  number: 8.74
- smiles-text: "Cc1ccc(-n2nccn2)c(C(=O)N(CCn2ccc(-c3ccc(F)cn3)n2)C2COC2)c1"
  measurement-kind: "pIC50"
  number: 7.60
- smiles-text: "CCN(CCn1ccc(-c2ccc(C(F)(F)F)cn2)n1)C(=O)c1cc(C)ccc1-n1nccn1"
  measurement-kind: "pIC50"
  number: 7.29

(1) CCN(CCn1ccc(-c2ccccn2)n1)C(=O)c1cc(C)ccc1-n1nccn1
(2) CN(CCn1ccc(-c2ccc(F)cn2)n1)C(=O)c1cc(F)ccc1-n1nccn1
(3) CCN(CCn1ccc(-c2ccc(F)cn2)n1)C(=O)c1ccccc1-c1ncccn1
(4) CCN(CCn1ccc(-c2ccc(F)c(F)c2)n1)C(=O)c1ccccc1-c1ncccn1
(5) CCN(CCn1cc(-c2ccc(F)cn2)cn1)C(=O)c1cc(C)ccc1-c1ncccn1
Request: Order the records so the highest pIC50 appears first and the lowest last. Rank the items, then write their labels in that order.
Response: 1, 4, 3, 5, 2
(1: 9.00, 4: 8.72, 3: 8.08, 5: 7.53, 2: 7.12)

(a) Cc1ccc(-n2nccn2)c(C(=O)N(CCn2ccc(-c3ccc(F)cn3)n2)C2CC2)c1
(b) CCN(CCn1cc(-c2ccc(F)cn2)cn1)C(=O)c1ccccc1-c1ncccn1
(c) Cc1ccc(-n2nccn2)c(C(=O)N(CCn2cc(-c3ccc(F)cc3)cn2)CC2CC2)c1
Request: Rank items: key pIC50, increasing. Rank the items, then write their labels in that order.
Response: b, c, a

(I) CCN(CCn1ccc(-c2cccc(C)n2)n1)C(=O)c1cc(C)ccc1-n1nccn1
(II) Cc1ccc(-n2nccn2)c(C(=O)N(C)CCn2ccc(-c3ccc(F)cc3)n2)c1
Request: Return label of the item with the larger pIC50. Candidates: I , II . Could you answer with the label of the item you picked?
Response: II
